Entry source: ChEMBL document CHEMBL4513216

- assay explanation: Toxicity liver stage against HepG2, at 10uM
- Format: cell-based
- Set-up: test concentration 10 uM, cell line HepG2-A16-CD81EGFP
- experimental context: human, HepG2-A16-CD81EGFP cells; read-out: INHIBITION
readout kind: cytotoxicity at 10 µM
Entry format: amount then unit.

compound: CCN(CC)c1ncccc1CNC(=O)c1cc2nc(C)cc(C)n2n1
cytotoxicity at 10 µM: 6.43%
//
compound: Cn1ccnc1CNC1CCCN(Cc2noc(C3CC3)n2)C1 (stereo not drawn)
cytotoxicity at 10 µM: -11.1%
//
compound: COc1ccc(CN2CCCCCC2c2cccs2)c(OC)c1 (stereo not drawn)
cytotoxicity at 10 µM: 11%
//
compound: O=C(N[C@@H]1CN(Cc2cccs2)[C@@H]2COC[C@@H]21)C1CCC1
cytotoxicity at 10 µM: 9.34%
//
compound: Cc1cc2nc(CO[C@H]3CN(C(=O)C4CC4)C[C@H]3F)[nH]c2cc1C
cytotoxicity at 10 µM: -43.4%

// each compound listed below needs its cytotoxicity at 10 µM
1. CCN(CC)C(=O)CN(C)C1CCc2ccccc21 (stereo not drawn)
2. O=C(COCC1CC1)NCC(c1ccccc1)N1CCc2sccc2C1 (stereo not drawn)
3. COc1cc(N2CC[C@@H](OC)[C@@H]2Cc2ccccc2)ncn1
4. CSCCC(C)NC(=O)N1CCSC(C)(C)C1 (stereo not drawn)
5. CCCn1ncc(CN2C[C@@H]3CCCN3C[C@@H]2Cc2ccccc2)c1C
6. CNCc1cn(C[C@H]2C[C@@H]3CCN2C[C@@H]3C(=O)NC2CCCCC2)nn1

### Response
["-5.1%", "16.6%", "-138%", "5.89%", "-8.16%", "1.73%"]

// each compound listed below needs its cytotoxicity at 10 µM
1. O=C(NCC(O)CN1CCc2ccccc2C1)Nc1cccnc1 (stereo not drawn)
2. CNS(=O)(=O)c1ccc(CNC(=O)c2c(C)oc(C)c2C)cc1

### Response
3.2%
-17.1%

// each compound listed below needs its cytotoxicity at 10 µM
1. NC(=O)NC(=O)CN1CCN(CC2CC2)c2ccccc21
2. Nc1cc(CCCNC(=O)NC2CCCC2)nn1-c1ccccc1
3. Cc1cnc(C(=O)N2CCCN(Cc3cnn(C(C)C)c3)CC2)cn1
4. O=C(CCc1ccccc1)Nc1ncccc1OC(F)F
5. O=C1Nc2ccccc2CNC12CCN(CC1CC1)CC2
6. COc1ccc(C(N)c2cccc(S(C)(=O)=O)c2)cc1 (stereo not drawn)
7. O=C(CN1CCc2cncnc2C1)N1CCc2sccc2C1

### Response
1: 11.7%; 2: -18.9%; 3: 1.28%; 4: -3.45%; 5: 6.03%; 6: 4.69%; 7: 11.9%

----------
- assay explanation: Toxicity liver stage against HepG2, at 10uM
- Assay type: cell-based
- Parameters: test concentration 10 uM, cell line HepG2-A16-CD81EGFP
- experimental context: human, HepG2-A16-CD81EGFP cells; read-out: INHIBITION
readout kind: cytotoxicity at 10 µM (%)
One number for each entry, in %.

compound: CCCNC(=O)CCOc1cccc(F)c1
cytotoxicity at 10 µM [%]: 4.75

compound: Cc1cccc(C(=O)NCC2CCS(=O)(=O)C2)n1 (configuration not stated)
cytotoxicity at 10 µM [%]: -6.21

compound: CCN(Cc1ccccc1)S(=O)(=O)C1CCS(=O)(=O)CC1
cytotoxicity at 10 µM [%]: 5.44

compound: CNC(=O)[C@H]1C[C@@H]2CN(S(=O)(=O)c3cccc(F)c3)C[C@@H]2N1C
cytotoxicity at 10 µM [%]: -4.94

compound: CCN1C(=O)C2(CCOCC2)c2cc(NC(=O)c3csnn3)ccc21
cytotoxicity at 10 µM [%]: 0.223

// each compound listed below needs its cytotoxicity at 10 µM
1. Cc1oncc1C(=O)N1C[C@H]2CCCC(N(C)Cc3cccs3)[C@H]2C1 (some centres not stated)
2. CCC1c2ccsc2CCN1C(=O)NCc1cccnc1OC (configuration not stated)
3. Cc1noc(NC(=O)CCNC(=O)c2ccc(Br)cc2)n1

### Response
18.8
-2.28
0.449

// each compound listed below needs its cytotoxicity at 10 µM
1. CCn1ncc2c1CCCC2NCc1ccc2c(c1)CCO2 (configuration not stated)
2. Clc1ccc(Cc2nc(CNCCn3cccn3)cs2)cc1
3. COC(=O)c1ccc(NC(C)c2ccc3c(c2)CCC(=O)N3)nn1 (configuration not stated)

### Response
-4.47
-1.86
2.52

// each compound listed below needs its cytotoxicity at 10 µM
1. O=c1[nH]nc2c(N3CCCCCC3)nccn12
2. Cc1ccc(CN2Cc3nnn(C)c3C(COCCN(C)C)C2)s1 (configuration not stated)
3. COCC(=O)N1CCN(C(=O)C2CCCCC2)[C@@H](C(=O)OC)C1
4. CCOC(C)C(=O)Nc1ccc2c(ccn2CC)c1 (configuration not stated)
5. CC(=O)c1cccc(NC(=O)Cn2cc(-c3ccccc3)ncc2=O)c1
6. Cc1cc(Cc2cccc(C(F)(F)F)c2)cc(C2CCCNC2)n1 (configuration not stated)
7. NC(=O)N1CCC(NCc2cc(Br)ccc2Cl)CC1

### Response
[10.5, -7.25, 1.08, 0.877, -2.45, -2.34, -6.43]
